TGT: cDNA-expressed human hepatic CYP3A4 (Homo sapiens (Human), UniProt P08684)
Sequence (P08684 whole entry): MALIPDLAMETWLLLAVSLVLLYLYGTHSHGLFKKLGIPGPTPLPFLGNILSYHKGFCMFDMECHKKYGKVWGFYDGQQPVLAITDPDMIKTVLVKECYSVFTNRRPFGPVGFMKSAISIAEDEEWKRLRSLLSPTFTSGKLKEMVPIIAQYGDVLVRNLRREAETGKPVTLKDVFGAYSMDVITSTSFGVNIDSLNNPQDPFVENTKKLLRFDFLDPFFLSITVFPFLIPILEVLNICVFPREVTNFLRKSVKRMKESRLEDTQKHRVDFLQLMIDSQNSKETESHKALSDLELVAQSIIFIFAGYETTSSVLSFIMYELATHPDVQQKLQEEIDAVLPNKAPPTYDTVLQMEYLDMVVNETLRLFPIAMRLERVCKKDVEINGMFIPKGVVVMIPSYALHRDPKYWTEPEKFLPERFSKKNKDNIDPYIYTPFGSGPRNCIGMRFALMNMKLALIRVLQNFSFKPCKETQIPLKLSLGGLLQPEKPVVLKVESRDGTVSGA
RUN DESCRIPTION: Measurement of CYP (IC50 of P450 CYP3A4), BFC substrate
Assay type: in vitro ADME
TEST SETTINGS: 20 minutes
// values below are reported pIC50
# pIC50 = -log10(concentration in molar units)

C=CCN1CC(=O)N2[C@@H](Cc3ccc(O)cc3)C(=O)N(Cc3cccc4c(-c5ccc(NC(=O)Nc6ncccn6)cc5)cn(C)c34)C[C@@H]2N1C(=O)NCc1ccccc1	5.07
C=CCN1CC(=O)N2[C@@H](Cc3ccc(O)cc3)C(=O)N(Cc3cccc4c(C(=O)N5CCN6CCN(CC(C)C)CC6C5)cn(C)c34)C[C@@H]2N1C(=O)NCc1ccccc1 (stereo partly drawn)	5.40

Proceed to the following item.
Any idea what pIC50 was measured for C=CCN1CC(=O)N2[C@@H](Cc3ccc(O)cc3)C(=O)N(Cc3cccc4c(-c5ccc(C(=O)Nc6cccc(OC(C)C)c6)cc5)cn(C)c34)C[C@@H]2N1C(=O)NCc1ccccc1 ?
4.86

* * *

TGT: cDNA-expressed human hepatic CYP3A4 (Homo sapiens (Human), UniProt P08684)
RUN DESCRIPTION: Measurement of CYP (IC50 of P450 CYP3A4), BFC substrate
Type: in vitro ADME
TEST SETTINGS: 20 minutes
Response field label takes rule met when IC50 is strictly below 5 µM and rule not met in all other cases.

Take a look at these entries with their results.
C=CCN1CC(=O)N2[C@@H](Cc3ccc(O)cc3)C(=O)N(Cc3cccc4c(C(=O)Nc5ccc(OCCN(C)C)nc5)cn(C)c34)C[C@@H]2N1C(=O)NCc1ccccc1	rule not met
C=CCN1CC(=O)N2C(CN(Cc3cccc4c(C(=O)Nc5ccc(N6CCN(C(C)C)CC6)nc5)cn(C)c34)C(=O)[C@@H]2Cc2ccc(O)cc2)N1C(=O)NCc1ccccc1 (some centres unmarked)	rule not met

Just wondering, is IC50 of C=CCN1CC(=O)N2[C@@H](Cc3ccc(O)cc3)C(=O)N(Cc3cccc4c(-c5ccc(C(=O)N(C)C)o5)cn(C)c34)C[C@@H]2N1C(=O)NCc1ccccc1 below 5 µM?
rule met

Does C=CCN1CC(=O)N2[C@@H](Cc3ccc(O)cc3)C(=O)N(Cc3cccc4c(C(=O)NCCCN5CCN(C)CC5)cn(C)c34)C[C@@H]2N1C(=O)NCc1ccccc1 have IC50 strictly under 5 µM?
rule met

* * *

System: MV-4-11 (human, Acute Myeloid Leukemia cell line) cells
RUN DESCRIPTION: Cell growth inhibition assay, GI50 of MV-4-11
Assay type: cell-based
TEST SETTINGS: Homo sapiens, MV4-11, 72 h, MV-4-11 cells
# label = T if GI50 < 6 nM else F

# example entries with known answers
C=CCN1CC(=O)N2[C@@H](Cc3ccc(O)cc3)C(=O)N(Cc3cccc4c(C(=O)N5CCN(CCN6CCOCC6)CC5)cn(C)c34)C[C@@H]2N1C(=O)NCc1ccccc1	F
C=CCN1CC(=O)N2C(Cc3ccc(O)cc3)C(=O)N(Cc3cccc4c(C(=O)Nc5ccc(NC6CC(C)(C)N(C)C(C)(C)C6)nc5)cn(C)c34)CC2N1C(=O)NCc1ccccc1 (centres unmarked)	F
C=CCN1CC(=O)N2[C@@H](Cc3ccc(O)cc3)C(=O)N(Cc3cccc4c(C(=O)Nc5ccc(OCCOC)nc5)cn(C)c34)C[C@@H]2N1C(=O)NCc1ccccc1	T
C=CCN1CC(=O)N2[C@@H](Cc3ccc(O)cc3)C(=O)N(Cc3cccc4c(-c5ccc(NC(=O)Nc6ccc(OC)nc6)cc5)cn(C)c34)C[C@@H]2N1C(=O)NCc1ccccc1 [Compound B]	F

For the next question, use this molecule.
API: query returns whether the molecule falls strictly under 6 nM in GI50. Query: C=CCN1CC(=O)N2[C@@H](Cc3ccc(O)cc3)C(=O)N(Cc3cccc4c(-c5ccc(C(=O)Nc6ccc(N7CCOCC7)nc6)cc5)cn(C)c34)C[C@@H]2N1C(=O)NCc1ccccc1
T
